experimental.details: in vitro
conditions: human, in vivo
reported.property: fraction unbound
Number only, no unit.

Prompt: # lookup: fraction unbound of CO[C@H]1/C=C/O[C@@]2(C)Oc3c(C)c(O)c4c(O)c(c5c(nc6cc(C)ccn65)c4c3C2=O)NC(=O)/C(C)=C\C=C\[C@H](C)[C@H](O)[C@@H](C)[C@@H](O)[C@@H](C)[C@H](OC(C)=O)[C@@H]1C
Completion: 0.447

Attribution: patent US12697326B2
